TEST_METHOD_NOTES: Apparent volume of distribution in Sprague-Dawley rat at 25 mg/kg, IG
Assay type: ADME, organism-based
CONDITION_SET: in vivo, po
READOUT_NAME: Vd/F (L/kg)

| CHEMICAL_STRUCTURE | VAL |
| --- | --- |
| O=C(Nc1ncc([N+](=O)[O-])s1)c1ccc(C(F)(F)F)cc1 | 0.5 |

---

// reported Cmax per item
TEST_METHOD_NOTES: Cmax in Sprague-Dawley rat at 25 mg/kg, IG
Format: ADME, organism-based
Parameters: route […], dose 25 mg/kg
CONDITION_SET: in vivo, po

| MOLECULE | Cmax, ng/mL |
| --- | --- |
| O=C(Nc1ncc([N+](=O)[O-])s1)c1ccc(C(F)(F)F)cc1 | 20700 |
| CC(=O)Oc1ccccc1C(=O)Nc1ncc([N+](=O)[O-])s1 [NITAZOXANIDE] | 1000 |
